These data points were gathered from ChEMBL document CHEMBL1201862.

- Test system: MDA-MB-435
- Method Description: NCI tumour cell line growth inhibition, 48 h
Activity calls are given as the source filed them. Rule as the data show it: active = GI50 up to about 1.1 µM and inactive = higher.
The categories you may choose from are active, inactive

Some solved cases for reference:
- Compound: "O=C1C(O)=C(CCCCCCCCC2CCCCC2)C(=O)c2ccccc21 [MENOCTONE]"
  Class Assignment: "inactive"
- Compound: "Clc1ccc(NCc2nnc(CCCCCCCCc3nnc(CNc4ccc(Cl)cc4)o3)o2)cc1"
  Class Assignment: "inactive"
- Compound: "CC(C)(C)c1ccc2c(c1)C#Cc1cc(C(C)(C)C)ccc1OCCCO2"
  Class Assignment: "inactive"
- Compound: "NC1=C(N2CCOCC2)C(=O)NC2=N/C(=C\\c3ccccc3O)C(=O)N21"
  Class Assignment: "inactive"
- Compound: "C[C@@H]1C[C@@H](O)[C@]2(O)O[C@@H]3C[C@@]4(C=O)[C@@H](CC[C@@H]5[C@@H]4CC[C@]4(C)[C@@H](C6=CC(=O)OC6)CC[C@]54O)C[C@H]3O[C@@H]2O1 [CALACTIN]"
  Class Assignment: "active"
- Compound: "COC[C@@H](C[C@H]1O[C@@](O)([C@H](O)[C@@H]2C[C@H](OC)[C@@H](O)CC/C=C(C)/C=C/[C@@H](O[C@@H]3O[C@@H](C)[C@H](OC)[C@@H](O)[C@@H]3O)[C@H](C)/C=C(C)/C=C(C)/C=C(\\C)C(=O)O2)[C@H](C)[C@@H](O)[C@H]1C)O[C@H]1C[C@](C)(O)[C@@H](O[C@H]2C[C@@H](OC)[C@H](O)[C@@H](C)O2)C(C)O1 (stereo not given in full)"
  Class Assignment: "inactive"

Data request: Per the assay record, what outcome was assigned to CC(C)OC(=O)C1=C2c3ncccc3C(=O)N2[C@@H](Cl)[C@H](Cl)[C@H]1Cl ?
Data returned: inactive
